I'd be grateful if you could share measured ΔTm for these entries.
Test system: DNA
Experiment: Binding affinity to calf thymus DNA at 20 uM after 72 hrs by thermal denaturation assay
Format: nucleic-acid assay
Conditions: Bos taurus
Numbers only, in °C.

Worked examples follow.
>>> observed_measurement("O=C1Nc2ccccc2C(=O)N2C=C(c3cccc4ccccc34)C[C@@H]12")
2.4
>>> observed_measurement("Nc1ccc(C2=CN3C(=O)c4ccccc4NC(=O)[C@@H]3C2)cc1")
1.1
>>> observed_measurement("O=C1Nc2ccccc2C(=O)N2C=C(c3cccc([N+](=O)[O-])c3)C[C@@H]12")
1

Value sought for every listed compound: ΔTm.
1. O=C1Nc2ccccc2C(=O)N2C=C(c3ccc(Cl)c(Cl)c3)C[C@@H]12
2. O=C1Nc2ccccc2C(=O)N2C=C(c3ccc(Br)cc3)C[C@@H]12
3. O=Cc1ccc(C2=CN3C(=O)c4ccccc4NC(=O)[C@@H]3C2)cc1

2.2
2.1
1.5

# query: ΔTm | item O=C1Nc2ccccc2C(=O)N2C=C(c3ccccc3)C[C@@H]12 | system: DNA
1.6
